- tested_target: recombinant human DPP7 (Homo sapiens, UniProt Q9UHL4)
- Construct: purchased R&D Systems
- measurement_description: DPP7 inhibition, fluorogenic substrate Lys-Pro-AMC
- Format: biochemical
- study_conditions: recombinant human DPP7
measured_metric: IC50 (µM)

N#Cc1ccc(N[C@H]2CCN(CC(=O)N3C[C@@H](F)C[C@H]3C#N)C2)c2cccnc12 [Example 267]
3.16
Cc1cnc2cccc(N[C@@H]3CCN(CC(=O)N4CCC[C@H]4C#N)C3)c2c1 [Example 208]
1.37
N#C[C@@H]1C[C@H](F)CN1C(=O)CN1CC[C@@H](Nc2ccnc3c(Cl)cccc23)C1 [Example 189]
2.58

A. N#C[C@@H]1C[C@H](F)CN1C(=O)CN1CCC(Oc2ccnc3cc(F)ccc23)CC1 [Example 433]
B. N#C[C@@H]1C[C@H](F)CN1C(=O)CN1CC[C@H](Nc2ccc(C(F)(F)F)c3ncccc23)C1 [Example 265]
C. N#C[C@@H]1CCCN1C(=O)CN1CCC(Nc2ccc(C(=O)Nc3ccncc3)c3ncccc23)CC1 [Example 401]
// query Order the records, beginning with the lowest IC50 and ending with the highest. Please write the labels in the order that was asked for.
// result C, B, A
(C: 0.775 µM, B: 1.13 µM, A: 3.07 µM)

----------
- tested_target: recombinant human DPP7 (Homo sapiens)
- Construct: purchased R&D Systems
- measurement_description: DPP7 inhibition, fluorogenic substrate Lys-Pro-AMC
- Format: biochemical
- study_conditions: recombinant human DPP7
pIC50: −log10 of the molar value.
measured_metric: pIC50

A. COc1ccc2ncccc2c1N[C@H]1CCN(CC(=O)N2C[C@@H](F)C[C@H]2C#N)C1 [Example 260]
B. N#C[C@@H]1C[C@H](F)CN1C(=O)CN1CCC(Nc2cccc3ccncc23)CC1 [Example 342]
C. N#C[C@@H]1C[C@H](F)CN1C(=O)CN1CC[C@H](Nc2cccc3ncc(F)cc23)C1 [Example 255]
// query Sort ascending by pIC50: all records listed above. Please write the labels in the order that was asked for.
// result A, C, B
(A: 5.08, C: 5.73, B: 6.50)

a. N#C[C@@H]1CCCN1C(=O)CN1CC[C@@H](Nc2cccc3ncccc23)C1 [Example 161]
b. N#C[C@@H]1C[C@H](F)CN1C(=O)CN1CCC(Oc2ccc3ccncc3c2)CC1 [Example 423]
c. N#Cc1ccc2c(N[C@H]3CCN(CC(=O)N4C[C@@H](F)C[C@H]4C#N)C3)cccc2n1 [Example 252]
// query Put the entries in order of pIC50, starting with the largest number. Please write the labels in the order that was asked for.
// result c, b, a

----------
- tested_target: DPP4 (Homo sapiens)
- Sequence (P27487 whole entry): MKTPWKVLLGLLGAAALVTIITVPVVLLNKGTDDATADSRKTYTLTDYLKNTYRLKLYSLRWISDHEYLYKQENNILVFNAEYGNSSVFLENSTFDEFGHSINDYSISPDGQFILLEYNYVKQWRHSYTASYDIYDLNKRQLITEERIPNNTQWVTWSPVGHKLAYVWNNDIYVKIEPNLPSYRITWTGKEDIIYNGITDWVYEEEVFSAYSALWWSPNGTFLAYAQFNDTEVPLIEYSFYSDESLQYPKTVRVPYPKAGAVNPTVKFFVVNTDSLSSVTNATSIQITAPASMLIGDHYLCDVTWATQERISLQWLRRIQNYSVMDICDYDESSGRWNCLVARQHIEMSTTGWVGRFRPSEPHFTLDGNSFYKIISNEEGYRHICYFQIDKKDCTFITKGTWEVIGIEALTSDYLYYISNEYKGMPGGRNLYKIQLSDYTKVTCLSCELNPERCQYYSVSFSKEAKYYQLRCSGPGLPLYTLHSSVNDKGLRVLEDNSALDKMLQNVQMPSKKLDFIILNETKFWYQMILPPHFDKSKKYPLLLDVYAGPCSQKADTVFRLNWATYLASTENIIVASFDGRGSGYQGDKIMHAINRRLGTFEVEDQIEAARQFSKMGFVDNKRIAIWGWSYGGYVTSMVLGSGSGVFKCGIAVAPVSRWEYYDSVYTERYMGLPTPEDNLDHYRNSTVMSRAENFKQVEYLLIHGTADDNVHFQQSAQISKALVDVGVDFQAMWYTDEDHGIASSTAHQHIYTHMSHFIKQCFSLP
- measurement_description: DPP4 inhibition, fluorogenic substrate H-Gly-Pro-AMC
- Assay type: biochemical
- Parameters: purchased R&D Systems
- study_conditions: 25° C., H-Gly-Pro-AMC substrate
# reported IC50; entries follow

// query Lab note: need IC50 with DPP4 (Homo sapiens) for entry N#C[C@@H]1CC(F)(F)CN1C(=O)CN1CC[C@H](Nc2cccc3ccsc23)C1 , please look it up.
// result > 1 µM

// query Lab note: need IC50 with DPP4 (Homo sapiens) for entry Cc1cnc2cccc(NC3CCN(CC(=O)N4CCC[C@H]4C#N)CC3)c2c1 , please look it up.
// result > 10 µM

// query Lab note: need IC50 with DPP4 (Homo sapiens) for entry Cc1cnc2cccc(NC3CCN(CC(=O)N4C[C@@H](F)C[C@H]4C#N)CC3)c2c1 , please look it up.
// result 3.45 µM
